Reference source: PubChem BioAssay (NCI)

# Tested on: SK-MEL-5 melanoma
# procedure summary: NCI tumour cell line growth inhibition, 48 h; in the data active = GI50 below about 0.43 µM; inactive = the rest
Outcome codes: YES (active), NO (inactive)

compound | test system | answer label
CN1CCN(c2ccc3nc(-c4ccc5nc(-c6ccc(OCCC(C)(C)C)cc6)[nH]c5c4)[nH]c3c2)CC1 | SK-MEL-5 melanoma | NO
O=C1/C(=C/c2ccc(Cl)cc2)N=C(c2ccccc2)N1CCc1cccs1 | SK-MEL-5 melanoma | NO
COc1cc(/C=C/C(=O)c2ccc(NC(=O)CN3CCN(c4cc5c(cc4F)c(=O)c(C(=O)O)cn5C4CC4)CC3)cc2)cc(OC)c1OC | SK-MEL-5 melanoma | NO
COc1ccc(Nc2c3ccccc3nc3ccccc23)cc1 | SK-MEL-5 melanoma | NO
CC(=Nc1ccccc1)C1=C(O)C(Cc2ccccc2)NC1=O (stereo unspecified) | SK-MEL-5 melanoma | YES
COc1ccc(OC)c(/C=C(/C)[N+](=O)[O-])c1 | SK-MEL-5 melanoma | NO
COc1ccc2c(c1)C(=O)c1c-2c(Nc2ccc(Cl)cc2)nc2ccccc12 | SK-MEL-5 melanoma | NO
C=C1CCC2C(C)(C)CCC[C@]2(C)[C@H]1CO (stereo partly specified) | SK-MEL-5 melanoma | NO
Cc1cccc2c(=O)c3c(sc12)c(NCCNCCO)nc1ccccc13 | SK-MEL-5 melanoma | NO
Nc1nc(-c2ccc(F)cc2)c(-c2ccc3ncccc3n2)s1 | SK-MEL-5 melanoma | NO
Cc1c(COc2cc(OCc3cccc(C#N)c3)c(CN3C[C@H](O)C[C@@H]3C(=O)O)cc2Cl)cccc1-c1ccc2c(c1)OCCO2 | SK-MEL-5 melanoma | NO
C[C@@H](CO)[C@@H]1CCC=C2CC[C@]3(C)[C@H](CC[C@@H]4[C@@]5(C)CCCNC(C)(C)[C@@H]5CC[C@]43C)[C@H]21 | SK-MEL-5 melanoma | NO
CCN(C(=O)c1cc(F)ccc1Oc1cncnc1N1CC2(CCN(CC3CCC(NS(=O)(=O)CC)CC3)CC2)C1)C(C)C (stereo unspecified) | SK-MEL-5 melanoma | NO
COc1cc(Nc2ccnc(NCCCNc3ccnc4cc(Cl)ccc34)n2)cc(OC)c1 | SK-MEL-5 melanoma | NO
O=C(NCc1ccc(Cn2c(=O)sn(-c3ccccc3)c2=O)cc1)OCc1ccc2c(Br)cc(Br)c(O)c2n1 | SK-MEL-5 melanoma | NO
COC(=O)C1=C(C)NC(C)=C(C(=O)OC)C1/C=C(Cl)/C=C/c1ccccc1 | SK-MEL-5 melanoma | NO

###

Documented TGI across a set of molecules
# System: SK-OV-3 ovarian
# procedure summary: NCI tumour cell line growth inhibition, 48 h

molecule | TGI
CC1(C)Cc2cc(C(=O)O)c3c(c2C1=O)COCC3 | > 100 µM
Oc1[nH]c2ccc(Cl)cc2c1/C=c1/ccc2c(c1)N=C(c1ccc(F)cc1)N=2 | 19.1 µM
CC(=O)O[C@@H]1C2=C(C)C=C(O2)[C@H]2O[C@]2(C)C[C@H]2C=C(C(=O)O2)[C@H](OC(C)=O)CC1[C@@]1(C)CO1 (stereo not given in full) | > 100 µM
Cc1cc(C)nc(SC(C)C(=O)N/N=C/c2ccc(OCc3ccccc3)cc2)n1 (stereo not given) | > 100 µM
COC(=O)CCC(=O)CC(=O)C(=O)Nc1c(Cl)cc([N+](=O)[O-])cc1Cl | > 100 µM

###

# Test system: MDA-MB-231 breast
# procedure summary: NCI tumour cell line growth inhibition, 48 h
Documented GI50 across a set of compounds

structure smiles string | GI50
Cn1ccnc1C(=O)/C=C/c1ccccc1 | 3.39 µM
CN(CC(=O)N(Cc1ccc(C2CCCCC2)cc1)c1ccc(C(=O)O)c(O)c1)S(=O)(=O)c1c(F)c(F)c(F)c(F)c1F | 1.86 µM
Nc1nc(-c2ccc(F)cc2)c(-c2ccc3ncccc3n2)s1 | > 25 µM
Cc1cccc2c(=O)c3c(sc12)c(NCCNCCO)nc1ccccc13 | 1.23 µM
Cc1cc(Cl)ccc1NC(=O)c1cc2ccccc2cc1O | 1.01 µM
Nc1nc(-c2ccccc2)nc(N)c1N=O | 12.6 µM
O=C1/C(=C/c2ccc(Cl)cc2)N=C(c2ccccc2)N1CCc1cccs1 | 13.6 µM
NC(=O)c1cc(-c2ccc(F)cc2)cc(-c2ccncc2)c1N | > 25 µM
O=[N+]([O-])c1c(Br)sc(Br)c1[N+](=O)[O-] | 2.32 µM
CN1CCN(c2ccc3nc(-c4ccc5nc(-c6ccc(OCCC(C)(C)C)cc6)[nH]c5c4)[nH]c3c2)CC1 | 2.85 µM
COc1cc2c3c(n(CCCI)c(=O)c2cc1OC)-c1cc2c(cc1C3=O)OCO2 | 18.7 µM

###

# System: OVCAR-8 ovarian
# procedure summary: NCI tumour cell line growth inhibition, 48 h; in the data active = GI50 below about 0.43 µM; inactive = the rest
Non-standard residues stand in square brackets, D forms with d. Residues, ends and D or L forms follow the SMILES beside them. *: point of attachment. hSer = N[CH](CCO)C(=O)O; Boc = CC(C)(C)OC(=O)*
Outcome codes: active, inactive

molecule | answer label
Cc1cc(N(CCNc2ccnc3cc(Cl)ccc23)Cc2ccco2)nc(Cl)n1 | inactive
Nc1nc(-c2ccccc2)nc(N)c1N=O | inactive
Cc1cc(Cl)ccc1NC(=O)c1cc2ccccc2cc1O | inactive
CC(=Nc1ccccc1)C1=C(O)C(Cc2ccccc2)NC1=O (stereo unspecified) | active
COC(=O)C1=C(C)NC(C)=C(C(=O)OC)C1/C=C(Cl)/C=C/c1ccccc1 | inactive
COc1ccc(Cn2cc3c(c2-c2ccc(OC)cc2)CCc2cnoc2-3)cc1 | inactive
CC[C@@H](C(=O)[C@@H](C)[C@@H](O)[C@H](C)[C@@H]1O[C@@H]([C@@H](CC)C(=O)N(CC)CC)CC[C@@H]1C)C1O[C@]2(C=CC(=O)[C@]3(CC[C@@](C)([C@H]4CC[C@](O)(CC)[C@H](C)O4)O3)O2)[C@H](C)C[C@@H]1C (stereo partly specified) | inactive
Oc1[nH]c2ccc(Cl)cc2c1/C=c1/ccc2c(c1)N=C(c1ccc(F)cc1)N=2 | inactive
COc1ccc(-c2nc3ccccn3c2/C=C/C(=O)c2cc(OC)c(OC)c(OC)c2)cc1 | inactive
COCCC(NC(=O)C(CC(C)C)NC(=O)OC(C)(C)C)C(=O)OC (stereo not drawn) (Boc-Leu-[hSer](Me)-OMe; configuration not given here) | inactive
NC(=O)c1cc(-c2ccc(F)cc2)cc(-c2ccncc2)c1N | inactive

###

Documented TGI across a set of molecules
# System: EKVX NSCLC
# procedure summary: NCI tumour cell line growth inhibition, 48 h
reported metric: TGI (µM)

molecule | test system | bound sign | value
NC(=O)c1ccc2nc(-c3ccc(Oc4ccc(Cl)cc4)cc3)[nH]c2c1 | EKVX NSCLC | > | 75
Cc1cc(NC[C@H](O)[C@H](O)[C@H](O)CO)c(Sc2cc(=O)[nH]c(=O)[nH]2)cc1C | EKVX NSCLC | > | 62.5
CCCCN1C(=O)c2c(-c3sccc3N)sc(-c3sccc3N)c2C1=O | EKVX NSCLC | > | 83.7
O=C(/C=C/c1cc([N+](=O)[O-])ccc1Cl)c1ccccc1 | EKVX NSCLC | = | 43.2
COc1ccc(/C=c2\sc3n(c2=O)C(N)=C(C#N)C(c2ccc(OC)cc2)C=3c2nc3ccccc3[nH]2)cc1 (stereo not given) | EKVX NSCLC | = | 56.2

###

Documented TGI across a set of molecules
# Tested on: SNB-19 CNS
# procedure summary: NCI tumour cell line growth inhibition, 48 h
reported metric: TGI (µM)

structure smiles string | reported metric | scale unit | value
COc1cc2c(cc1Nc1nc(Nc3ccsc3C(N)=O)c3cc[nH]c3n1)N(C(=O)CN(C)C)CCC2(C)C | TGI | µM | 7.1
O=C1CCCC/C1=C\c1ccc(Br)cc1 | TGI | µM | 13.2
CCCCN1C(=O)c2c(-c3sccc3N)sc(-c3sccc3N)c2C1=O | TGI | µM | 44.2
CSc1c(C#N)c(N)nc2c(N=Nc3ccc(Cl)cc3)c(N)nn12 | TGI | µM | 40.7

###

# Tested on: CAKI-1 renal
# procedure summary: NCI tumour cell line growth inhibition, 48 h

compound | scale unit | bound sign | TGI
Brc1ccc2c([C@H]3CN[C@@H](c4c[nH]c5cc(Br)ccc45)CN3)c[nH]c2c1 | µM | = | 11.3
CC(=O)O[C@]1(C(C)=O)CC[C@H]2[C@@H]3C=C(C)C4=CC(=O)CC[C@]4(C)[C@H]3CC[C@@]21C | µM | > | 100
CC(=O)OC(CCC1(C)OC1COc1ccc(CCNC(=O)c2ccccc2)cc1)C(C)(C)OC(C)=O (stereo not given) | µM | > | 100
CN1CCC(CN2c3ccccc3Sc3ccccc32)CC1 | µM | = | 18
Cn1/c(=N\S(=O)(=O)c2ccccc2)n(S(=O)(=O)c2ccccc2)c2ccccc21 | µM | > | 100
